Each item that follows carries a reported GI50.
Test system: TK-10
Experiment: NCI tumour cell line growth inhibition, 48 h
Calls of active or inactive are those of the source. Cut-off read from the data, not from the text of the source: active = GI50 up to about 1.1 µM and inactive = higher.
experimental_readout: GI50

molecule="CC[C@@H](C(=O)[C@@H](C)[C@@H](O)[C@H](C)CCc1ccc(C)c(O)c1C(=O)O)[C@H]1O[C@](CC)([C@H]2CC[C@](O)(CC)[C@H](C)O2)C[C@@H]1C [LASALOCID A SODIUM]" experimental_readout=GI50 result="2.79 µM (inactive)"
molecule=O=C1/C(=C/c2ccc(O)c(O)c2)CC/C1=C\c1ccc(O)c(O)c1 experimental_readout=GI50 result="> 25.9 µM (inactive)"
molecule=Nc1nc(-c2cccs2)cs1 experimental_readout=GI50 result="87.9 µM (inactive)"
molecule="COc1cc2c(cc1OC)C(Cl)C(c1ccc(Cl)c(Cl)c1)=C2Cl (centres undefined)" experimental_readout=GI50 result="20.7 µM (inactive)"

###

Tested on: NCI/ADR-RES
Assay: NCI tumour cell line growth inhibition, 48 h
Active and inactive are the calls of the source. No stated cut-off is given here; in the data, active = GI50 up to about 1.1 µM and inactive = higher.
experimental_readout: GI50

compound="N#CC1CNC(N)NC1N (stereo not given)" experimental_readout=GI50 result="> 100 µM (inactive)"
compound="CC(O)C(NC(=O)C(CS)NC(=O)C(CO)NC(=O)C(CCCCN)NC(=O)C(Cc1c[nH]c2ccccc12)NC(=O)C(Cc1ccc(O)cc1)NC(=O)C(CS)NC(=O)C(N)Cc1ccccc1)C(N)=O (stereo not given)" experimental_readout=GI50 result="> 25 µM (inactive)"
compound=CCNc1ncnc2nn[nH]c12 experimental_readout=GI50 result="> 100 µM (inactive)"
compound="CCC1C(C#N)=C(N)OC2=C1C(=O)CC(C)(C)C2 (stereo not given)" experimental_readout=GI50 result="> 100 µM (inactive)"
compound=Cc1c(OCc2cccc3ccccc23)ccc2c(=O)cc(SCCN3CCOCC3)oc12 experimental_readout=GI50 result="> 100 µM (inactive)"
compound=O=CCCCCCOCc1ccccc1 experimental_readout=GI50 result="> 55.8 µM (inactive)"
compound="CC(=O)OC[C@H]1O[C@@H](O[C@H]2[C@H](OC(C)=O)C=CO[C@@H]2COC(C)=O)C(OC(C)=O)[C@H]2OC(C)(C)O[C@H]21 (stereo not given in full)" experimental_readout=GI50 result="> 100 µM (inactive)"
compound="CCOC(=O)C(Cc1ccccc1)(Cc1ccc(O)cn1)NC(=O)c1ccccc1 (stereo not given)" experimental_readout=GI50 result="26.4 µM (inactive)"
compound=Nc1c(-c2ccccc2)c2ccc([N+](=O)[O-])cc2c(=O)n1-c1cccc(C(=O)O)c1 experimental_readout=GI50 result="> 100 µM (inactive)"
compound="CN(C(=O)C12C3(C(=O)O)C4C5(C(=O)O)C3C1(C(=O)O)C5C42C(=O)O)C(C)(C)C (stereo not given)" experimental_readout=GI50 result="> 100 µM (inactive)"
compound="CC1(C)C(=O)C2(C#N)CCC1C2 (stereo not given)" experimental_readout=GI50 result="> 100 µM (inactive)"
compound=NCCCCCNOCCCN experimental_readout=GI50 result="> 100 µM (inactive)"
compound="COc1cc2c(cc1OC)C(Cl)C(c1ccc(Br)cc1)=C2Cl (stereo not given)" experimental_readout=GI50 result="10.9 µM (inactive)"
compound="C=C(C)CCC(O)[C@](C)(O)[C@H]1[C@H](O)C[C@@]2(C)[C@@H]3CCc4c(cc(OC5OC(CO)C(O)C(O)C5O)c(O)c4C)C3(C)C(=O)C[C@]12C (stereo not given in full)" experimental_readout=GI50 result="> 100 µM (inactive)"
compound=CCCN(CCC)C(=O)c1c(N2CCN(C)CC2)c2cccnc2n2c(C)cnc12 experimental_readout=GI50 result="> 100 µM (inactive)"
compound=COc1cc(/C=N\O)cc(/C=N/O)c1O experimental_readout=GI50 result="58.1 µM (inactive)"
compound=CCNC(=S)N/N=C(\C)c1cccc(C)n1 experimental_readout=GI50 result="8.45 µM (inactive)"
compound=Sc1nnc(CCCCCCCCc2nnc(S)o2)o1 experimental_readout=GI50 result="> 100 µM (inactive)"
compound=N#C/C(=C\Nc1ccccn1)C(=O)C1CC1 experimental_readout=GI50 result="> 100 µM (inactive)"
compound="CCCCCCCCC[C@@H]1C[C@@H]2CCC3C(C(=O)OC)=C(C)N=C(N1)N32 (stereo not given in full)" experimental_readout=GI50 result="18.7 µM (inactive)"
